Provenance of the data: patent US12559464B2

# Test system: myosin ATPase, Rabbit Psoas myofibrils
# protocol_summary: Myofibril ATPase assay, rabbit psoas (skeletal) myofibrils
# Type: biochemical
# assay_setup: concentration required to increase myosin ATP-ase activity by 25%; Rabbit Psoas Prep pCa 25 GEOM_MEAN
measured_attribute: Rabbit Psoas Y125 value (marked #)

Completed entries (count: 3):
[[record]]
compound = "C[C@H](NC(=O)[C@@H](Cc1ccccc1)n1c(=O)[nH]c2cccc(O)c2c1=O)c1ccc(F)cc1F"
measured_attribute = "Rabbit Psoas Y125 value (marked #)"
obs_value = "0.85^#^ μM"

[[record]]
compound = "C[C@H](NC(=O)[C@H](Cc1ccccc1)n1c(=O)[nH]c2cccc(O)c2c1=O)c1ccc(F)cc1F"
measured_attribute = "Rabbit Psoas Y125 value (marked #)"
obs_value = "51.2^# μM"

[[record]]
compound = "C[C@H](NC(=O)C(Cc1ccccc1)n1c(=O)[nH]c2ccccc2c1=O)c1ccc(F)cc1F (single isomer, unassigned)"
measured_attribute = "Rabbit Psoas Y125 value (marked #)"
obs_value = "3.28^#^ μM"


Okay, here is my list. What is Rabbit Psoas Y125 value (marked #) for each of these?
1. C[C@H](NC(=O)Cn1c(=O)c2cc(F)ccc2n(C)c1=O)c1ccc(F)cc1F
2. CC(C)C[C@H](C(=O)N[C@@H](C)c1ccc(F)cc1F)n1c(=O)[nH]c2ccccc2c1=O (single isomer, unassigned)
3. CC(C)CC(C(=O)N[C@@H](C)c1ccc(F)cc1F)n1c(=O)[nH]c2ccccc2c1=O (single isomer, unassigned)

1: 100^# ^ μM; 2: 7.64^#^ μM; 3: 23.575^#^ μM

Okay, here is my list. What is Rabbit Psoas Y125 value (marked #) for each of these?
1. CC(C)C[C@@H](C(=O)N[C@@H](C)c1ccc(F)cc1F)n1c(=O)[nH]c2ccccc2c1=O (single isomer, unassigned)
2. CC(C)C[C@H](NC(=O)Cn1c(=O)[nH]c2ccccc2c1=O)c1ccc(F)cc1F (single isomer, unassigned)

24.3^# μM
90.27^# μM
